Taken from PubChem BioAssay (NCATS).

Test system: C33A
Experiment: Primary qHTS to identify gynecologic anti-cancer compounds using libraries of approved drugs and bioactive compounds (AID 1345084); also: % is scaled to controls: 0 for no effect and ±100 for the full control effect; nearly all actives have a fitted effect of over 55% in size
Conditions: Gynecologic cancer cell panel viability, ATPlite luminescence, 48 h; series mostly up to 57.5 µM
Records with an inconclusive call do not appear. Active and inactive are the calls of the source. Calls follow the shape of the dose curve; as a rule, active = well fitted cell-killing curve with a large enough effect; inconclusive = small, poorly fitted or top-dose-only effect, or effect the other way; inactive = flat fitted curve, though single readings scatter.

Compound	System Under Test	activity change, negative = cytotoxicity
C=C[C@@]1(C)CCC2=C([C@H]1OC(C)=O)[C@H](OC(C)=O)CC1[C@](C)(C(=O)OC)CC[C@H](OC(C)=O)[C@]21C (some centres undefined)	C33A	inactive
COc1c(C)c(OCC(O)C(C)(C)O)cc2c1CNC2=O (centres undefined)	C33A	inactive
CCc1nn(CCO)c(CC)c1Oc1cc(C#N)cc(C#N)c1	C33A	inactive
CC1CCC2(NC1)OC1C(O)C3C4CCC5CC(O[C@@H]6O[C@H](CO)[C@@H](O)[C@H](O)[C@H]6O[C@@H]6O[C@@H](C)[C@H](O)[C@@H](O)[C@H]6O)CCC5(C)C4CCC3(C)C1C2C (some centres undefined)	C33A	inactive

###

Test system: CRL-7250
Test: Cytotoxic Profiling of Annotated Libraries Using Quantitative High-Throughput Screening (AID 1296008); also: % is scaled to controls: 0 for no effect and ±100 for the full control effect; nearly all actives have a fitted effect of over 60% in size
Settings: Five cell lines viability, CellTiter-Glo ATP luminescence, 48-72 h; active compounds read low
Inconclusive results are not listed. Calls of active or inactive are those of the source. Calls come from the whole dose curve; as a rule, active = well fitted inhibition curve with a large enough effect; inconclusive = small, poorly fitted or top-dose-only effect; inactive = flat fitted curve, though single readings scatter.
Endpoint: max response

Worked set:
Compound	max response
OC[C@H]1O[C@@H](OCc2ccccc2)[C@H](O)[C@@H](O)[C@@H]1O	0.468% (inactive)
COc1cccc(CNc2ccc(S(=O)(=O)Nc3nc4ccccc4s3)cc2)c1O	0.252% (inactive)
CC1CC(=O)[C@]2(O)C(C(=O)OCCc3ccc(O)c(O)c3)=CO[C@@H](O[C@@H]3O[C@H](CO)[C@@H](O)[C@H](O)[C@H]3O)[C@H]12 (some centres undefined)	4.18% (inactive)
CCC(C)C(C(=O)O)N1Cc2c(OCC=C(C)C)c(C)c(OC)c(C(=O)O)c2C1=O (centres undefined)	0.564% (inactive)
O=C(O)c1ccnc2cc(C(OCC3CCC(F)(F)CC3)c3ccccc3Cl)[nH]c12 (centres undefined)	2.57% (inactive)
CC1(C)CCC2(C(=O)O)C(O)CC3(C)C(=CCC4C5(C)CCC(OC6OC(CO)C(O)C(O)C6OC6OC(CO)C(O)C(O)C6OC6OCC(O)(CO)C6O)C(C)(C)C5CCC43C)C2C1 (centres undefined)	-4.69% (inactive)
COc1cccc(Cn2ncc3c4sc(S(C)=O)cc4n(C)c3c2=O)c1 (centres undefined)	2.15% (inactive)
CC(C)(C)NS(=O)(=O)c1ccc(-c2ccc3[nH]nc(N)c3c2)cc1	-6.71% (inactive)

-- ask Retrieve max response measured for C=C1C(=O)OC2CC(COC(=O)C(C)C)=C(C(C)CCCOC(C)=O)[C@@H](OC(C)=O)C12 (some centres undefined) and print it.
-- reply -4.9% (inactive)

-- ask Fill in max response for record C/C=C(/C)C(=O)OC1CC(C)(C)CC2C3=CCC4C5(C)CCC(OC6OC(C)C(OC7OC(C(=O)O)C(O)C(OC8OC(CO)C(O)C(O)C8OC8OC(CO)C(O)C(O)C8O)C7O)C(O)C6O)C(C)(C)C5CCC4(C)C3(C)C(OC(=O)/C=C/C=C/C=C/CCC)C(OC(C)=O)C12CO (centres undefined)
-- reply 3.68% (inactive)

-- ask Give the value of max response reported for the following: Cc1nnc(-c2sc(NC(=O)[C@H](C(C)C)n3c(=O)[nH]c4ccccc4c3=O)nc2C)o1
-- reply -59.8% (inactive)

-- ask # return recorded max response for input C=C1[C@H](OC(C)=O)[C@H]2[C@@H](OC(=O)c3ccccc3)[C@@H](C)C[C@]2(O)[C@@H](OC(C)=O)[C@H](C)/C=C/C(C)(C)C(=O)[C@H](OC(C)=O)[C@H]1OC(C)=O
-- reply 3.14% (inactive)

-- ask Identify measured max response associated with C[C@@H]1CCC2C(C)(C)[C@H](O)[C@H](O)C[C@]2(C)[C@@]12Cc1c(O)cc3c(c1O2)CN(CCCC(=O)O)C3=O (some centres undefined)
-- reply -7.06% (inactive)

-- ask Indicate its recorded max response; the compound in question is C[C@@H]1CC[C@]2(C(=O)O[C@@H]3O[C@H](CO[C@@H]4O[C@H](CO)[C@@H](O[C@@H]5O[C@@H](C)[C@H](O)[C@@H](O)[C@H]5O)[C@H](O)[C@H]4O)[C@@H](O)[C@H](O)[C@H]3O)CC[C@]3(C)C(=CCC4[C@@]5(C)C[C@@H](O)[C@H](O)[C@@](C)(CO)C5CC[C@]43C)C2[C@H]1C (some centres undefined)
-- reply -0.89% (inactive)

###

Tested on: HACAT
Experiment: qHTS assay to identify novel small-molecules to repurpose for Merkel cell carcinoma treatment (AID 1296009); also: nearly all actives have a fitted effect of over 60% in size
Settings: MCC and control cell lines, CellTiter-Glo viability, 72 h; at 44.8 µM (top of the series) unless noted
Inconclusive results are not listed. The source made the active and inactive calls. Calls follow the shape of the dose curve; as a rule, active = well fitted inhibition curve with a large enough effect; inconclusive = small, poorly fitted or top-dose-only effect; inactive = flat fitted curve, though single readings scatter. *1 amine or outer side, *2 acyl side, *3 side chain or, on linkers, in order; H or OH if unused. Where a SMILES comes first, the peptide text is derived from it. [ ]: non-standard residue; d: D form. X13 = O=C(C(CC(O)CO)O[*:1])[*:2]; NMeV = CN[CH](C(=O)O)C(C)C; NMeA = CN[CH](C)C(=O)O; βAla = NCCC(=O)O
Endpoint: outcome

Molecule	System Under Test	Endpoint	Result
CCC(C)C1NC(=O)C2CCCN2C(=O)C(CC(O)CO)OC(=O)CCNC(=O)C(C)N(C)C(=O)C(C(C)C)N(C)C1=O (stereo not drawn) (cyclo([X13]PI[NMeV][NMeA][βAla]); configuration not given here)	HACAT	outcome	inactive [at 17.4 µM]
C=C1C2(C)CC3C4(C)C=CC(=O)OC(C)(C)C4CCC3(C)C1(C(=O)OC)C(=O)C(C)(O)C2=O (stereo not drawn)	HACAT	outcome	inactive [at 17.4 µM]

###

Test system: HACAT
Experiment: qHTS assay to identify novel small-molecules to repurpose for Merkel cell carcinoma treatment (AID 1296009); also: nearly all actives have a fitted effect of over 60% in size
Settings: MCC and control cell lines, CellTiter-Glo viability, 72 h; at 44.8 µM (top of the series) unless noted
Inconclusive results are not listed. Calls of active or inactive are those of the source. The call rests on the fitted dose curve; in most records, active means well fitted inhibition curve with a large enough effect; inconclusive means small, poorly fitted or top-dose-only effect; inactive means flat fitted curve, though single readings scatter.
Endpoint: outcome

Compound	Endpoint	Result
C/C1=C\CC[C@]2(C)O[C@H]2C(=O)c2c(C)coc2C1	outcome	inactive
Cc1ccccc1-n1nc(-c2c(-c3ccc(F)cc3)nn3c2NC[C@@H](CO)C3)ccc1=O	outcome	inactive
C[C@@H]1CC[C@]2(C(=O)O[C@@H]3O[C@H](CO[C@@H]4O[C@H](CO)[C@@H](O[C@@H]5O[C@@H](C)[C@H](O)[C@@H](O)[C@H]5O)[C@H](O)[C@H]4O)[C@@H](O)[C@H](O)[C@H]3O)CC[C@]3(C)C(=CCC4[C@@]5(C)C[C@@H](O)[C@H](O)[C@@](C)(CO)C5CC[C@]43C)C2[C@H]1C (stereo not given in full)	outcome	inactive [at 9.27 µM]
CC(C)CC(=O)O[C@@H]1O[C@H](CO)[C@@H](O[C@H]2O[C@H](C)[C@@H](N[C@H]3C=C(CO)[C@@H](O[C@H]4O[C@H](CO)[C@@H](O[C@H]5O[C@H](CO)[C@@H](O[C@H]6O[C@H](CO)[C@@H](O)[C@H](O)[C@H]6O)[C@H](O)[C@H]5O)[C@H](O)[C@H]4O)[C@H](O)[C@H]3O)[C@H](O)[C@H]2O)[C@H](O)[C@H]1O	outcome	inactive [at 9.27 µM]
CCc1cc(CC[C@]2(C3CCCC3)CC(O)=C(Cc3nc4nc(C)cc(C)n4n3)C(=O)O2)cc(CC)n1	outcome	inactive

-- ask Return outcome for the following compound: O=C(NCC(=O)N1CCCC1)Nc1ccc2ccccc2c1
-- reply inactive

-- ask Read the entry C[C@@H](NC(=O)c1cc(C(=O)N[C@@H](Cc2ccccc2)[C@H](O)CNC2CC2)cc(N(C)S(C)(=O)=O)c1)c1ccccc1 and write its reported outcome.
-- reply inactive

-- ask Identify the reported outcome for the following entry. C[C@@H]1CC2OC(=O)C3=C2C(CCC3O)[C@@]12C[C@@H](c1ccoc1)OC2=O (stereo not given in full)
-- reply inactive

-- ask Give the reported value of outcome for this record: CC1(C)C[C@@H]2[C@H](C1)[C@@]1(C)C[C@]13C(O)OC[C@]3(O)[C@H]2O (stereo not given in full)
-- reply inactive

-- ask # return recorded outcome for input CC(C)Oc1ccc(-c2nc(-c3cccc4c3CCC4NCCC(=O)O)no2)cc1C#N (stereo not given)
-- reply inactive

-- ask Assign outcome to the following record: OC[C@H]1O[C@@H](OCCc2ccccc2)[C@H](O)[C@@H](O)[C@@H]1O
-- reply inactive

-- ask Kindly indicate its recorded outcome. Item: COc1c(C)c(OCC=C(C)C)cc2c1COC2=O
-- reply inactive

-- ask Answer with reported outcome of COc1c(O[C@@H]2O[C@H](CO)[C@@H](O)[C@H](O)[C@H]2O)c(CCC(=O)O)cc2ccoc12
-- reply inactive

-- ask For the compound O=C1OC(c2ccc(O)cc2)C(O)=C1Cc1ccccc1 (stereo not given) , give its reported outcome.
-- reply inactive

-- ask Identify outcome associated with the compound OC[C@H]1O[C@@H](OC[C@H]2O[C@@H](OCc3ccccc3)[C@H](O)[C@@H](O)[C@@H]2O)[C@H](O)[C@@H](O)[C@@H]1O
-- reply inactive [at 17.4 µM]

-- ask Return the recorded outcome value; entry: CCC(=O)N1CCc2cc(OC)c(O)cc2C1
-- reply inactive

-- ask Assign outcome to the following record: C=CC(C)(CC/C=C(\C)C(=O)OC[C@H]1O[C@@H](OC(C)(C=C)CC/C=C(\C)C(=O)O[C@H]2[C@H](O)[C@@H](O)[C@H](OC(C)(C=C)CC/C=C(\C)C(=O)O)O[C@@H]2CO)[C@H](O)[C@@H](O)[C@@H]1O)O[C@@H]1O[C@H](CO)[C@@H](O)[C@H](O)[C@H]1O (stereo not given in full)
-- reply inactive [at 9.27 µM]

-- ask Return outcome for the following compound: Cc1cccc(NC(=O)CN2CCC(c3ccccn3)CC2)c1
-- reply inactive

-- ask Output outcome of C[C@@H]1O[C@@H](O[C@H]2[C@H](O[C@H]3[C@H](O[C@H]4CC[C@@]5(C)C(CC[C@]6(C)C5CC=C5[C@@H]7CC(C)(C)C[C@@H](O)[C@]7(C)CC[C@]56C)[C@@]4(C)CO)O[C@H](C(=O)O)[C@@H](O)[C@@H]3O)O[C@H](CO)[C@H](O)[C@@H]2O)[C@H](O)[C@H](O)[C@H]1O (stereo not given in full)
-- reply inactive [at 9.27 µM]

-- ask Fill in reported outcome for this entry: COC(=O)C1=CO[C@@H](O[C@@H]2O[C@H](CO)[C@@H](O)[C@H](O)[C@H]2O)[C@@H]2C(CO)=CC[C@H]12
-- reply inactive

-- ask Tell us which outcome value is on record for CC1(C)CC=C(c2cnc3ccccc3c2)c2cc(C(=O)Nc3ccc(C(=O)O)cc3)ccc21
-- reply inactive

-- ask Assign outcome to the following record: COc1cncc(C#Cc2ccccn2)c1
-- reply inactive

-- ask Identify outcome associated with the compound COc1cc(Nc2nc3ccccc3nc2NS(=O)(=O)c2cccc(NC(=O)c3ccc(C)c(OC)c3)c2)cc(OC)c1
-- reply inactive

-- ask In one line, give reported outcome of the entry O=C(Cc1ccccc1)OC[C@H]1O[C@H](O[C@H]2O[C@H](CO)[C@@H](O)[C@H](O)[C@H]2O)[C@H](O)[C@@H](O)[C@@H]1O .
-- reply inactive [at 17.4 µM]

-- ask Please report the measured outcome for C/C=C1/[C@H](O[C@@H]2O[C@H](CO)[C@@H](O)[C@H](O)[C@H]2O)OC=C(C(=O)OC)[C@H]1CC(=O)OCCc1ccc(O)c(O)c1
-- reply inactive [at 17.4 µM]

-- ask Please report outcome for the following compound: CC(C)c1c(NC(=O)Nc2ccc(Cl)cc2)c(=O)n(-c2ccccc2)n1C
-- reply inactive
